The measurements presented in this section are drawn from patent US9056874B2.

# testedTarget: factor B (Homo sapiens)
# Sequence (P00751 260-764 limits assumed): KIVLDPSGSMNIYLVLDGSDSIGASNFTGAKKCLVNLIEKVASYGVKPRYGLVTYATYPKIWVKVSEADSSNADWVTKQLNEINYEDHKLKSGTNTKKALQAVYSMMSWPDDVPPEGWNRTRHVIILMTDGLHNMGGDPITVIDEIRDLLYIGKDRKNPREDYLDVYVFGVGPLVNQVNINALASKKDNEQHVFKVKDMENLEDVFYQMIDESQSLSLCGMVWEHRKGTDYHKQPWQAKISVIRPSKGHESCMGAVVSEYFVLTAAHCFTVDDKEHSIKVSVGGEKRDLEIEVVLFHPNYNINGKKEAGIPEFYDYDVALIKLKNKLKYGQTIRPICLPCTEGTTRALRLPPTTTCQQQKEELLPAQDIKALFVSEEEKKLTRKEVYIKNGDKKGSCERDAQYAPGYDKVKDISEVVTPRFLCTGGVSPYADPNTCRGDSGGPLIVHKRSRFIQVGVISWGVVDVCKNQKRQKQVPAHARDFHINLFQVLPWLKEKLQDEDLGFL
# Sequence (Q91132 23-649 partner limits assumed): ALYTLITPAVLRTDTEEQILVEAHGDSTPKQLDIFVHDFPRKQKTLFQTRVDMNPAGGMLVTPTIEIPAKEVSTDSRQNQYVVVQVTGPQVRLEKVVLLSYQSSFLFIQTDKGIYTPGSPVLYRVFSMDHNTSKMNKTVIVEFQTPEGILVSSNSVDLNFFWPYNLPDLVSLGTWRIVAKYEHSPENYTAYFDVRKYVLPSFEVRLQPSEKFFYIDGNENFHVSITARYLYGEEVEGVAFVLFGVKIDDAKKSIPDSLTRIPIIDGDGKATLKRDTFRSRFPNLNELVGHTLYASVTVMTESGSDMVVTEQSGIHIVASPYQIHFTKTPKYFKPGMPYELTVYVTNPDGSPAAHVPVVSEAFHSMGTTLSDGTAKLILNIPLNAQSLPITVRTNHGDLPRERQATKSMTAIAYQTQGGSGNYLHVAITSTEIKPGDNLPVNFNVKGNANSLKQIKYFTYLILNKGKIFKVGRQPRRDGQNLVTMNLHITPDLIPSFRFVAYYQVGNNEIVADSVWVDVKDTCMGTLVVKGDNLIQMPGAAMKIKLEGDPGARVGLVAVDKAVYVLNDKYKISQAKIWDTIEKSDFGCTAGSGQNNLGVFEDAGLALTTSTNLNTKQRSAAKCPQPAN
# Sequence (Q91132 733-984 partner limits assumed): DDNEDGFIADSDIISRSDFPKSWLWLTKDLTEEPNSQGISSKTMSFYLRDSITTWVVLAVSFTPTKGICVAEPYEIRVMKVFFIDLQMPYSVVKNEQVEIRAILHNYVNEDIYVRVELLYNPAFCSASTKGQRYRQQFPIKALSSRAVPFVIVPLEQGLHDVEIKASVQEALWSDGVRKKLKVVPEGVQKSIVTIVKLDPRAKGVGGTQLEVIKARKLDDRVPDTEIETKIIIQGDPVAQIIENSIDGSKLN
# Sequence (Q91132 1264-1642 partner limits assumed): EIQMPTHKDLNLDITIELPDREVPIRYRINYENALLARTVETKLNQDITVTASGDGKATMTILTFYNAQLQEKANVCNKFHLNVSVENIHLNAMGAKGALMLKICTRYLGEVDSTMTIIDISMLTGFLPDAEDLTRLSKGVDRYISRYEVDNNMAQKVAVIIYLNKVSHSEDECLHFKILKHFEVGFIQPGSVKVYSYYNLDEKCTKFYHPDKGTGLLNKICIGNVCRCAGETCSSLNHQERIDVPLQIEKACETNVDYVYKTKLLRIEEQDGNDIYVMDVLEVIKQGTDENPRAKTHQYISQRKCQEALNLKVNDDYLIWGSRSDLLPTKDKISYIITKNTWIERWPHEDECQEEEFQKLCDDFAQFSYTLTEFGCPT
# protocolDetails: factor B inhibition assay of Biological Example 1
# Format: biochemical
# Parameters: CVF-Bb complex prepared from purified cobra venom factor (1 μM), recombinant human complement factor B; made in house; host or cells: drosophila cells (factor B); E. coli (factor D used to form the complex)
# statedConditions: IC50 (nM), assay of Biological Example 1 (Table 1)
Would you mind classing the entries by IC50? Ranges: bottom = under 200 nM, middle = from 200 nM up to 1000 nM, top = 1000 nM and over

compound	labelValue
Cc1cc(C)c2[nH]ccc2c1Cc1nc2cc(C#N)cc(C)c2[nH]1	top
Cc1cc(C)c2[nH]ccc2c1C(C)(O)c1nc2cc(C#N)ccc2[nH]1 (single isomer, unassigned; (-)) [76-B b) (−)]	bottom
Cc1cc(C2CC2)c(C(O)c2nc3cc(C#N)ccc3[nH]2)c2cc[nH]c12 (stereo not drawn)	middle
Cc1cc(C)c2[nH]ccc2c1C(C)(c1nc2cc(C#N)ccc2[nH]1)N(C)C (racemic)	middle
Cc1cc(CN)c(Cc2nc3cc(C#N)ccc3[nH]2)c2cc[nH]c12	top
CCc1cc(C)c2[nH]ccc2c1C(C)(OC)c1nc2cc(C#N)ccc2[nH]1 (single isomer, unassigned; (+)) [84-C b) (+)]	bottom
Cc1cc(OCC2CC2)c(C(C)(O)c2nc3cc(C#N)ccc3[nH]2)c2cc[nH]c12 (single isomer, unassigned; (-)) [26-G b) (−)]	top
CNC(c1nc2cc(C#N)ccc2[nH]1)(c1c(Br)cc(C)c2[nH]ccc12)C(F)(F)F (single isomer, unassigned; (-)) [106 b) (−)]	bottom
Cc1cc(C(C)C)c(C(O)(c2nc3cc(C#N)ccc3[nH]2)C(F)(F)F)c2cc[nH]c12 (single isomer, unassigned; (-)) [80-F b) (−)]	bottom
COc1cc(C)c2[nH]ccc2c1C(OC)(c1nc2cc(C#N)ccc2[nH]1)C(F)(F)F (single isomer, unassigned; (-)) [34-B b) (−)]	bottom
Cc1cc(C)c2[nH]ccc2c1C(O)(c1ccccc1)c1nc2cc(C#N)ccc2[nH]1 (stereo not drawn)	middle
CNC(c1nc2cc(C#N)ccc2[nH]1)(c1c(Br)cc(C)c2[nH]ccc12)C(F)(F)F (single isomer, unassigned; (+)) [106 b) (+)]	bottom
Cc1cc(C2CC2)c(C(O)(c2nc3cc(C#N)ccc3[nH]2)C(F)(F)F)c2cc[nH]c12 (single isomer, unassigned; (+)) [80-E b) (+)]	bottom
Cc1cc(C)c2[nH]cc(-c3ccccc3)c2c1C(O)c1nc2cc(C#N)ccc2[nH]1 (single isomer, unassigned) [118-C b) (tr = 4.6 min)]	bottom
CCc1cc(C)c2[nH]cc(Cl)c2c1C(O)c1nc2cc(C#N)ccc2[nH]1 (racemic)	middle
CCc1cc(C)c2[nH]ccc2c1C(O)(c1nc2cc(C#N)ccc2[nH]1)C(F)(F)F (single isomer, unassigned; (+)) [80-C b) (+)]	middle
COc1cc(C)c2[nH]ccc2c1C(O)c1nc2cc(C#N)ccc2o1 (single isomer, unassigned; (-)) [125-B b) (−)]	bottom
COc1cc(C)c2[nH]ccc2c1C(C)(O)c1nc2cc(C#N)ccc2[nH]1 (racemic) [26-C b) (−)]	bottom
Cc1cc(S(C)(=O)=O)c(C(O)c2nc3cc(C#N)ccc3[nH]2)c2cc[nH]c12 (racemic)	top
Cc1cc(Cl)c(C(C)(O)c2nc3cc(C#N)ccc3[nH]2)c2cc[nH]c12 (single isomer, unassigned; (+)) [79-E b) (+)]	top
CCOCc1cc(C)c2[nH]ccc2c1C(O)c1nc2cc(C#N)ccc2[nH]1 (single isomer, unassigned; (+)) [66-D b) (+)]	top
COc1cc(C)c2[nH]ccc2c1C(O)c1cc2ccc(C#N)cc2[nH]1 (racemic)	bottom
COc1cc(C)c2[nH]ccc2c1C(=O)c1nc2cc(C#N)ccc2[nH]1	middle
Cc1cc(OCC(=O)O)c(C(C)(O)c2nc3cc(C#N)ccc3[nH]2)c2cc[nH]c12 (racemic)	top
Cc1cc(Br)c2[nH]ccc2c1Cc1nc2cc(C#N)ccc2[nH]1	top
COc1cc(C)c2[nH]ccc2c1C(c1nc2cc(C#N)ccc2[nH]1)N(C)C (racemic)	top
